Biological target: Progesterone receptor (Rattus norvegicus) (UniProt Q63449)
Sequence (whole entry): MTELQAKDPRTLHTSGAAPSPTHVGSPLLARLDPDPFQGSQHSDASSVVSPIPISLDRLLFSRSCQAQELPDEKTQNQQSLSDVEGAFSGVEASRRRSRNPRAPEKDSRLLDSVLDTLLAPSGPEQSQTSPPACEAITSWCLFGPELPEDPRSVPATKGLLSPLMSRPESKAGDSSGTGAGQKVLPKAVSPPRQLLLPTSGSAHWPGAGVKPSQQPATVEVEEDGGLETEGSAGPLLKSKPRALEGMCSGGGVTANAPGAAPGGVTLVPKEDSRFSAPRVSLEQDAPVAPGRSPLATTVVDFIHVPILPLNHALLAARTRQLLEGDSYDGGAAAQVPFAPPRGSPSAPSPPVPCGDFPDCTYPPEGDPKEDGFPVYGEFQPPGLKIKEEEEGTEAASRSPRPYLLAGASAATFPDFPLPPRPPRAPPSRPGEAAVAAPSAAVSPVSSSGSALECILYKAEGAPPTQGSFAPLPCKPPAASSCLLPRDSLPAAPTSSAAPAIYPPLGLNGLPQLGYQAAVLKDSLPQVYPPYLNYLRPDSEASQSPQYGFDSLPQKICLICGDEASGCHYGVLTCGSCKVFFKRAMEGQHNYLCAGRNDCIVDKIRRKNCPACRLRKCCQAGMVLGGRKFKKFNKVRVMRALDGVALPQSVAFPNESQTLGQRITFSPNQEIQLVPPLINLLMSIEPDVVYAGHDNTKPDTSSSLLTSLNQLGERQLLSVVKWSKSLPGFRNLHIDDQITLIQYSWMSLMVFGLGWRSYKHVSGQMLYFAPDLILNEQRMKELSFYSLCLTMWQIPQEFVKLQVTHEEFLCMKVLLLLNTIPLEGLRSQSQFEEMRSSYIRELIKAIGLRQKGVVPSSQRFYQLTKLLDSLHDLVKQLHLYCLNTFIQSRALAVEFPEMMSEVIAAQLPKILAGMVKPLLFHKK
Assay: Relative binding affinity against progesterone receptor determined in rat […] cytosol using [3H]DHT as ligand
# reported RBA; entries follow
Write down the numeric answer in % and omit the unit.

// below: answered compounds
CC(=O)S[C@@H]1CC2=CC(=O)CCC2(C)C2C=CC3(C)C(C4CC4[C@@]34CCC(=O)O4)C21 (stereo partly drawn); 89
CC12C=CC(=O)C=C1[C@H]1C[C@H]1C1C2C=CC2(C)C1CC[C@@]21CCC(=O)O1 (stereo partly drawn); 1.9

We next turn to a different compound, shown below.
Would you mind telling me what RBA value was observed for CC12C=CC(=O)C=C1C1CC1C1C2C=CC2(C)C1C1CC1[C@@]21CCC(=O)O1 (stereo partly drawn) ?
150

* * *

Target: Mineralocorticoid receptor (Rattus norvegicus) (UniProt P22199)
Sequence (P22199 whole entry): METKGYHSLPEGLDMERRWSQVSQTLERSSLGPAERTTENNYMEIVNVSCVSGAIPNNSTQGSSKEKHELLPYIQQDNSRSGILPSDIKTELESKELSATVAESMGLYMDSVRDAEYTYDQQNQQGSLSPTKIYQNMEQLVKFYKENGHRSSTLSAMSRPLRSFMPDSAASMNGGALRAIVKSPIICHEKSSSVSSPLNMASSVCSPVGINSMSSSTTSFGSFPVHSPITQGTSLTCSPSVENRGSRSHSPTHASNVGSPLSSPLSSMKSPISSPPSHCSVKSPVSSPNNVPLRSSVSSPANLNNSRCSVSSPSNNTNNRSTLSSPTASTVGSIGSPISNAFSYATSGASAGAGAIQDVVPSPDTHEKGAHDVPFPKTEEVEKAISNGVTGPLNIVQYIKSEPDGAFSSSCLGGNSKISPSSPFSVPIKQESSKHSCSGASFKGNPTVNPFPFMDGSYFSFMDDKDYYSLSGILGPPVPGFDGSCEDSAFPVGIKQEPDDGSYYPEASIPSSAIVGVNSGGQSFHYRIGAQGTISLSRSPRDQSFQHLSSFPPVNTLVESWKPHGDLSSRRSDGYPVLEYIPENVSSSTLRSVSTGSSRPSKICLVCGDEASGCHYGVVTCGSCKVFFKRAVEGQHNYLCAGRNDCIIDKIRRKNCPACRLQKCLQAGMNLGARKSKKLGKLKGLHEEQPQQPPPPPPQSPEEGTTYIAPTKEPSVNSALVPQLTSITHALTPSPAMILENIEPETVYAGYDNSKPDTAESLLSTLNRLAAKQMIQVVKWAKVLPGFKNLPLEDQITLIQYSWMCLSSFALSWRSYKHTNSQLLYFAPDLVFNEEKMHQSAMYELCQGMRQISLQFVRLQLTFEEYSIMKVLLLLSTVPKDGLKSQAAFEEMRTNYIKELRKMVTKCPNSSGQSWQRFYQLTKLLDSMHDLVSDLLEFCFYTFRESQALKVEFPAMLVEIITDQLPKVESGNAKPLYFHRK
Assay: Relative binding affinity to the rat mineralocorticoid receptor determined in rat renal cytosol using [3]Ald as ligand
Label rule, in plain words: RBA of 60% and up is rule met, under 60% is rule not met.

CC12CCC(=O)C=C1C=CC1C2C=CC2(C)C1CC[C@@]21CCC(=O)O1 (some centres undefined); rule met
CC12C=CC(=O)C=C1C1CC1C1C2C=CC2(C)C1C1CC1[C@@]21CCC(=O)O1 (some centres undefined); rule met
CC(C)(C)C(=O)S[C@@H]1CC2=CC(=O)C=CC2(C)C2C=CC3(C)C(CC[C@@]34CCC(=O)O4)C21 (some centres undefined); rule met

Could you verify whether the entry CC12CCC(=O)C=C1CCC1C2C=CC2(C)C1CC[C@@]21CCC(=O)O1 (some centres undefined) shows RBA of no less than 60%?
rule met

Then CC12C=CC(=O)C=C1C[C@@H](SC(=O)c1ccccc1)C1C2C=CC2(C)C1CC[C@@]21CCC(=O)O1 (some centres undefined) ?
rule not met

Then CC12C=CC(=O)C=C1C=CC1C2C=CC2(C)C1C1CC1[C@@]21CCC(=O)O1 (some centres undefined) ?
rule met
